# STUDY_TARGET: PKC γ (Homo sapiens, UniProt P05129)
# TEST_METHOD_NOTES: Protein Kinase C histone-based assay, γ isoform
# Type: biochemical
# MEASUREMENT_CONDITIONS: histone III substrate, 30 μM ATP; approximately ± 30 percent margin of error; read-out: PKC Activity Gamma (IC50, Histone Based Assay)
pIC50: −log10 of the molar value.
# maps each entry to its pIC50
VALUE_TYPE: pIC50

INSERT INTO assay_data (compound, value_type, value) VALUES
  ('COc1ccccc1C1=C(c2cn(-c3cncc(C(=O)O)c3)c3ccc(Cl)cc23)C(=O)NC1=O', 'pIC50', 6.08),
  ('COc1ccccc1C1=C(c2cn(-c3cncc(C(N)=O)c3)c3ccc(Cl)cc23)C(=O)NC1=O', 'pIC50', 5.90),
  ('COc1ccccc1C1=C(c2cn(C3CCOCC3)c3ccccc23)C(=O)NC1=O', 'pIC50', 6.55),
  ('CN(C)CC(O)COc1ccccc1C1=C(c2cn(CCO)c3ccccc23)C(=O)NC1=O (stereo not shown)', 'pIC50', 6.32);

* * *

# STUDY_TARGET: recombinant rabbit GSK-3β (Oryctolagus cuniculus, UniProt G1T8E2)
# Sequence (G1T8E2 1-432): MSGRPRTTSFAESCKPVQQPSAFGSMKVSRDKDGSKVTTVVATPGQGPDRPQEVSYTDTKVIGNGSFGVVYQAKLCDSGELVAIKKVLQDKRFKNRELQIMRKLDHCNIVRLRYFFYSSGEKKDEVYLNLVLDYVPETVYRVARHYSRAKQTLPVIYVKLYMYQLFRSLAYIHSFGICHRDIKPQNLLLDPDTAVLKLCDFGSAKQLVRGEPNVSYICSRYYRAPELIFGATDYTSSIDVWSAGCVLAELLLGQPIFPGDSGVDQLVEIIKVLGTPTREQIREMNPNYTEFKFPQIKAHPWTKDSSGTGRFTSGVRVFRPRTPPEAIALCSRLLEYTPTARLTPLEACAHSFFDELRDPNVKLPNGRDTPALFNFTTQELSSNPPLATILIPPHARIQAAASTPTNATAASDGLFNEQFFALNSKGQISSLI
# TEST_METHOD_NOTES: Glycogen Synthase Kinase-3 assay
# MEASUREMENT_CONDITIONS: PPI-2 substrate, 33P-ATP, 90 minutes at 30° C.
VALUE_TYPE: log10 IC50 (log10 of the value in µM)

INSERT INTO assay_data (compound_smiles, value) VALUES
  ('COc1ccccc1C1=C(c2cn(-c3cncc(C(=O)O)c3)c3ccc(Cl)cc23)C(=O)NC1=O', -1.29),
  ('COc1ccccc1C1=C(c2cn(-c3cncnc3)c3ccccc23)C(=O)NC1=O', -2.10),
  ('COC(=O)c1cncc(-n2cc(C3=C(c4ccccc4OC)C(=O)NC3=O)c3cc(Cl)ccc32)c1', -1.40),
  ('COc1ccccc1C1=C(c2cn(CCN(C)CCO)c3ccccc23)C(=O)NC1=O', -1.57),
  ('COc1ccccc1C1=C(c2cn(C3CCOCC3)c3ccccc23)C(=O)NC1=O', -1.60),
  ('O=C1NC(=O)C(c2cn(-c3cccnc3)c3ccccc23)=C1c1ccc(O)cc1', -1.02),
  ('COc1ccccc1C1=C(c2cn(-c3cccnc3)c3ccccc23)C(=O)NC1=O', -1.59),
  ('O=C1NC(=O)C(c2cn(-c3cccnc3)c3ccccc23)=C1c1ccccc1O', -1.17),
  ('COc1ccccc1C1=C(c2cn(CC=O)c3ccccc23)C(=O)NC1=O', -1.41),
  ('COc1ccccc1C1=C(c2cn(-c3cncc(C(N)=O)c3)c3ccc(Cl)cc23)C(=O)NC1=O', -1.74),
  ('CCOC(Cn1cc(C2=C(c3ccccc3OC)C(=O)NC2=O)c2ccccc21)OCC', -0.41);

* * *

# STUDY_TARGET: PKC α (Homo sapiens)
# TEST_METHOD_NOTES: Protein Kinase C histone-based assay, α isoform
# MEASUREMENT_CONDITIONS: histone III substrate, 30 μM ATP; approximately ± 30 percent margin of error; read-out: PKC Activity Alpha (IC50, Histone Based Assay)
pIC50: −log10 of the molar value.
# maps each entry to its pIC50
VALUE_TYPE: pIC50

INSERT INTO results (molecule, value_type, value) VALUES
  ('COc1ccccc1C1=C(c2cn(-c3cncnc3)c3ccccc23)C(=O)NC1=O', 'pIC50', 5.68),
  ('COc1ccccc1C1=C(c2cn(-c3cncc(C(N)=O)c3)c3ccc(Cl)cc23)C(=O)NC1=O', 'pIC50', 6.09),
  ('CN(C)CCCn1cc(C2=C(c3csc4ccc(Cl)cc34)C(=O)NC2=O)c2ccccc21', 'pIC50', 7.08),
  ('COc1ccccc1C1=C(c2cn(C3CCOCC3)c3ccccc23)C(=O)NC1=O', 'pIC50', 6.39),
  ('CN(C)CC(O)COc1ccccc1C1=C(c2cn(CCO)c3ccccc23)C(=O)NC1=O (stereo not drawn)', 'pIC50', 6.93),
  ('COc1ccccc1C1=C(c2cn(-c3cncc(C(=O)O)c3)c3ccc(Cl)cc23)C(=O)NC1=O', 'pIC50', 6.23);
